B1: Osa-1-4 twister ribozyme (parent)
chain: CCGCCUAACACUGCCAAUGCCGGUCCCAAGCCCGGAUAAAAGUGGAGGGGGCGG

Variants of: B1
TEST_DESCRIPTION: self-cleavage, relative activity (ratio to wild type); higher = more cleavage; co-transcriptional
Reported self-cleavage values for the following variants.
MEASURE_NAME: self-cleavage

A36G G35A | 0.92
A17U C15G | 0.54
C11U U12C | 0.47
C21G C31G | 0.06
G48C G53A | 0.09
A10U A40C | 0.01
A17C C31U | 0.16
A17U A28C | 0.94
C20G G54U | 0.12
A17U G44C | 0.98
A39U C11G | 0.24
A40U G13C | 0.02
A17U G48A | 0.16
A7G C32A | 0.05
G13C G19C | 0.03
G47A G50U | 0.09
A10C C9U | 0.06
G44C G48A | 0.08
A29G C25G | 0.04
A8U C33A | 0.05
A39U G49C | 0.06
A40G C52A | 0.52
A16U G49C | 0.06
A39U A8C | 0.08
A41U G53C | 0.11
C21G G22C | 0.16
G42A G45C | 0.05
C21A U43A | 0.09
A29G U37C | 0.28
A29U C32G | 0.03
A10G A36C | 0.26
G51C G54U | 0.12
G34C G49U | 0.07
C14G G42U | 0.02
C9U U24G | 0.01
G30U G42A | 0.04
G48C G49A | 0.05
G23A U43G | 0.09
A39G C32G | 0.14
C26G G50U | 0.09
C15G U24C | 0.09
G22U G53A | 0.1
C14A G48A | 0.02
A38G U37C | 1.05
A16G G51C | 0.22
C52G G48A | 0.13
C15G G44C | 0.19
C15A C31U | 0.09
C27A C31G | 0.04
A16U G19C | 0.09
C14U C25U | 0.1
G35A G45C | 0.06
A39U U37G | 1.02
C15U C25G | 0.04
A28G A38C | 0.21
A17U C27U | 0.25
A10U G42U | 0.02
G13A G44C | 0.08
G13U G42U | 0.01
A16G C14G | 0.53
A10C A8C | 0.15
A46G A8G | 0.04
A29U C27U | 0.08
A10U G30U | 0.01
A38U C14U | 0.22
A46G C11G | 0.04
C32A G48A | 0.03
C26G C31G | 0.05
C15U C33A | 0.05
C11G G49A | 0.05
A29C | 0.05
C27U G42C | 0.07
G23A G34A | 0.11
U18A U43C | 0.36
G13C G50C | 0.02
A8U U43G | 0.08
A46U C52U | 0.09
C11G U18C | 0.24
G48C G50U | 0.1
C21G U24G | 0.03
A41C G23U | 0.06
G45A G47C | 0.05
A16U A7G | 0.27
G35U U12G | 0.08
A36G C27U | 0.32
A10C C33G | 0.02
A39C C14G | 0.05
A28C G30U | 0.04
A17G U12G | 0.39
C33G G45C | 0.02
G53C U12G | 0.04
